Ref: patent US20030130287A1

TARGET: 5-HT2A receptors (Rattus norvegicus, UniProt P14842)
Sequence (P14842 whole entry): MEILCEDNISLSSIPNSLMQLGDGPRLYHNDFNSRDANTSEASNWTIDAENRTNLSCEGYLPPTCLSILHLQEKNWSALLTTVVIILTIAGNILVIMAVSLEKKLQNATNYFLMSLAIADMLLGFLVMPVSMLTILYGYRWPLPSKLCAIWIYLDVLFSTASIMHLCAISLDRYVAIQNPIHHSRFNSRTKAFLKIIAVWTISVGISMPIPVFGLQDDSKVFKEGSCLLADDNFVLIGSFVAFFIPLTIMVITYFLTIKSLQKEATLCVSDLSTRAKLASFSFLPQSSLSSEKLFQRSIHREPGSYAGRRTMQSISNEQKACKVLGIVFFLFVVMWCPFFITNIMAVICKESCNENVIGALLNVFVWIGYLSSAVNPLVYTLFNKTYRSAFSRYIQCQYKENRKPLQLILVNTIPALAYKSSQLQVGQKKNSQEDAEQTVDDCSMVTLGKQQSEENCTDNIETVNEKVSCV
pIC50: recorded values
The quantity pIC50 is defined as the negative base-10 logarithm of the molar concentration.

- COMPOUND: "O=[N+]([O-])c1ccccc1S(=O)(=O)N1CCN(CCc2ccc(F)cc2)CC1 [compound 6]"
  pIC50: 8.04
- COMPOUND: "N#Cc1c[nH]c2ccc(S(=O)(=O)N3CCN(CCc4ccc(F)cc4)CC3)cc12 [compound 8]"
  pIC50: 8.80
- COMPOUND: "O=S(=O)(c1ccc2c(c1)CCN2)N1CCN(CCc2ccc(F)cc2)CC1 [compound 7]"
  pIC50: 7.89

Here's the next entry for you.
Challenge: Look up pIC50 for this compound: O=S(=O)(c1cccc2ccccc12)N1CCN(CCc2ccc(F)cc2)CC1 [compound 2]
Response given: 8.09
